experiment: folding enthalpy; higher = less favourable; fluorescence melt of hairpins on a sequencing array, two-state fit; settings: sodium 0.088 M
folding enthalpy reference
Provide the reading as a plain figure in kcal/mol.

In the examples that follow, each entry is paired with its recorded folding enthalpy.
{"residue sequence": "GTAAGGGAAACCTTAC ((((((....))))))", "value measured": -26.2}
{"residue sequence": "CTAAGGAAACTTAG (((((....)))))", "value measured": -10.7}
{"residue sequence": "GCAGAGCGAAAGCCATGC (((..((....))..)))", "value measured": -18.9}
{"residue sequence": "GTGCGAGGAAACTCACAC (((.(((....))).)))", "value measured": -34.2}
{"residue sequence": "CGAGGCCGGAAACGGTCG (((..(((....))))))", "value measured": -19.7}

Quick one: folding enthalpy of GCATAGCGAAAGCTCGGC ((..(((....)))..)) ?
-16.2

Dear colleague, I am looking for the recorded folding enthalpy of the following sequence: GTTCCACGAAAGTGAAC (((.(((....))))))
-17.7

Look up folding enthalpy for this sequence: GATTCCGGAAACAGAATC (((((.(....).)))))
-23.4

Name the recorded folding enthalpy for GGGAGAGCGAAAGCTCCC (((..(((....)))))) .
-15.8

Param item = GCCGTCCCGAAAGGGGGC (((..(((....)))))) ; retrieve measured folding enthalpy.
-17

What value of folding enthalpy has been reported for the following sequence? GATATCGGAAACGATACC (.(((((....))))).)
-17.3

====

test: folding enthalpy; higher = less favourable; fluorescence melt of hairpins on a sequencing array, two-state fit; details: sodium 0.088 M
Measured folding enthalpy accompanies every entry in the list below.

Record excerpt, results attached:
{"residue sequence": "GTTACTGGAAACGGTAAC (((((.(....).)))))", "folding enthalpy": "-32.2 kcal/mol"}
{"residue sequence": "GCTTTGCGAAAGCCGAGC (((..((....))..)))", "folding enthalpy": "-16 kcal/mol"}

Fill blank: measured folding enthalpy of the sequence GGCCCACCGAAAGGTGCC (((..(((....)))))) is ____.
-9.96 kcal/mol

Any idea what folding enthalpy was measured for GAATCGGGAAACTGGTTC (((.(.(....).).))) ?
-19.8 kcal/mol

Item under review: GACTGGACGAAAGTCGTC (((..(((....)))))) . Reported folding enthalpy?
-12.4 kcal/mol

Look at this sequence and give its reported folding enthalpy. GATCTAGAGGTAGATC ((((((....))))))
-24.4 kcal/mol

I would be grateful if you could share the reported folding enthalpy for GACGCCGGAAACAGCGTC (((((.(....).))))) .
-35.9 kcal/mol

Recorded folding enthalpy for GATCCACCCATGGATC ((((((....)))))) , please?
-34.2 kcal/mol

Fill blank: measured folding enthalpy of the sequence GACTTGCGAAAGCATGTC (((.(((....))).))) is ____.
-25.2 kcal/mol

Which folding enthalpy is reported for this sequence? GTCGCACGAAAGTGAGAC (((.(((....))).)))
-30.6 kcal/mol

Record request: folding enthalpy value, item GATCGTCAGTACGATC ((((((....))))))
-42.8 kcal/mol

Please report the recorded folding enthalpy for GATTCCGGAAACGGAGTC ((.((((....)))).)) .
-23.8 kcal/mol

Entry GGTCACGAAAGTGTCACC ((((((....)))..))) : reported folding enthalpy = ?
-13.3 kcal/mol

Query (sequence): GCACGCGAAAGCGGTTGC ((((((....)))..))) ; field requested: folding enthalpy
-13.3 kcal/mol

Give its folding enthalpy value. Item: GTGGCCGAAAGGCTTCAC ((((((....)))..)))
-12.4 kcal/mol

# query: folding enthalpy of entry GACTCCGGAAACGGAACC (..((((....))))..)
-8.88 kcal/mol

Requested field: folding enthalpy. Item: GATCGTTGTACGATC ((((((...))))))
-38.8 kcal/mol

Returns the measured folding enthalpy for the input sequence. Input: GGTTAGTCGAAAGACACC (((..(((....))))))
-17.2 kcal/mol
